Data provenance is PubChem BioAssay (NCATS).

# tested on: Rap guanine nucleotide exchange factor 3 (Homo sapiens) (UniProt O95398)
# Sequence (O95398 whole entry, looked up): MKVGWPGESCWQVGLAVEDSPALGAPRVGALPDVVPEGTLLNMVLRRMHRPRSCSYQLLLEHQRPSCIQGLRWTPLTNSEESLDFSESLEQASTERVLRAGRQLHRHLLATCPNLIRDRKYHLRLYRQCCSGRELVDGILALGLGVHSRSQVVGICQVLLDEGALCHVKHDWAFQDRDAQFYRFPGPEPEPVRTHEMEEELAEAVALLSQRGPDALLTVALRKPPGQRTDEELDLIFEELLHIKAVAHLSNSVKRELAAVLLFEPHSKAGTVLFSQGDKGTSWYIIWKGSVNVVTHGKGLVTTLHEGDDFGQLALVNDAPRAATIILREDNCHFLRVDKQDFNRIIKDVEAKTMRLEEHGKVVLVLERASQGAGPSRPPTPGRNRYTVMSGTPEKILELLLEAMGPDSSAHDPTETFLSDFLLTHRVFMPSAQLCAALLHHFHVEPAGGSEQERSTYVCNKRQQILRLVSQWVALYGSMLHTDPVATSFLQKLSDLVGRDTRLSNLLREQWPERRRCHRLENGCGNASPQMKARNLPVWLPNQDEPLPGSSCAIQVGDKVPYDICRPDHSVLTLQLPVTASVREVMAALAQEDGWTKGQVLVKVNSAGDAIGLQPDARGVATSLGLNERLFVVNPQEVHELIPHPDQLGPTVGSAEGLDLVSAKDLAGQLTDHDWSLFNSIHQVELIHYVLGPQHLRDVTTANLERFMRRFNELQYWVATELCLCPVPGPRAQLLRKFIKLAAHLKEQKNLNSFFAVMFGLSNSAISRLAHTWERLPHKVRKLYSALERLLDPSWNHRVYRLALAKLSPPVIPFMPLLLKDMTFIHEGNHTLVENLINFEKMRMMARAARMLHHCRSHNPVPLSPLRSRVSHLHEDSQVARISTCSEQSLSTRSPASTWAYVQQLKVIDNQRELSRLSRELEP
# assay text: Confirmatory qHTS for antagonist of cAMP-regulated guanine nucleotide exchange factor 3 (EPAC1) (AID 1645880); note: nearly all actives have a fitted effect of over 55% in size; note: potency is the fitted concentration of half-maximal effect
# condition context: EPAC1 Rap1B-BODIPY-GDP exchange, fluorescence
Results filed as inconclusive are left out. The source made the active and inactive calls. Calls come from the whole dose curve; as a rule, active = well fitted inhibition curve with a large enough effect; inconclusive = small, poorly fitted or top-dose-only effect; inactive = no such curve, though single readings can be large or run the other way.
endpoint: Potency

- CC1=C(CO)C(=O)OC([C@@H](C)C2CC[C@H]3C4C[C@H]5O[C@]56[C@@H](O)C=CC(=O)[C@]6(C)C4CC[C@]23C)C1 (some centres undefined): 84.9 µM (active)
- CCOC(=O)c1c(-c2ccc(OC)cc2)csc1/N=C/C1=C(O)CCCC1=O: inactive
- C[C@H](CO)N1C[C@H](C)[C@@H](CN(C)C)Oc2c(NS(=O)(=O)c3ccccc3)cccc2C1=O: inactive
- COc1cc(NC(=O)C2CCCCC2)c(OC)cc1NC(=O)CN1CCCCC1: inactive

###

# tested on: Rap guanine nucleotide exchange factor 3 (Homo sapiens)
# assay text: Confirmatory qHTS for antagonist of cAMP-regulated guanine nucleotide exchange factor 3 (EPAC1) (AID 1645880); note: nearly all actives have a fitted effect of over 55% in size
# condition context: EPAC1 Rap1B-BODIPY-GDP exchange, fluorescence
Results filed as inconclusive are left out. Calls of active or inactive are those of the source. The call rests on the fitted dose curve; in most records, active means well fitted inhibition curve with a large enough effect; inconclusive means small, poorly fitted or top-dose-only effect; inactive means no such curve, though single readings can be large or run the other way.
Outcome codes: active, inactive

* CC(=O)c1ccc(NC(=O)c2ccc3c(c2)C(=O)N(c2ccccn2)C3=O)cc1 | active
* Cc1cc(C)c2nc(N3C(=O)C(O)=C(C(=O)c4ccco4)C3c3ccc(O)cc3)sc2c1 (stereo unspecified) | active
* CCC(=O)N1N=C(c2ccc(Cl)cc2)CC1c1ccco1 (stereo unspecified) | inactive
* COc1ccc(Cl)cc1NC(=O)CN(C)Cc1ccc(OC)c(OC)c1 | inactive
* Cc1ccc(C(=O)C=Cc2ccc3c(c2)OCO3)c(C)c1 | inactive
* CN(C)c1ccc(/C=C/c2ccnc3c(Cl)cccc23)cc1 | inactive

###

# tested on: Cytochrome P450 3A4 (Homo sapiens)
# assay text: qHTS Assay for Inhibitors and Substrates of Cytochrome P450 3A4 (AID 884); note: nearly all actives have a fitted effect of over 50% in size
# condition context: recombinant CYP3A4, Luciferin-PPXE luminescence; series mostly up to 57.1 µM
Records with an inconclusive call do not appear. Calls of active or inactive are those of the source. The call rests on the fitted dose curve; in most records, active means well fitted inhibition curve with a large enough effect; inconclusive means small, poorly fitted or top-dose-only effect; inactive means no such curve, though single readings can be large or run the other way.
Outcome codes: class 1 = active, class 0 = inactive

- O=C(/C=C/c1ccc(O)c(O)c1)O[C@@H](C(=O)O)[C@@H](OC(=O)/C=C/c1ccc(O)c(O)c1)C(=O)O: class 0
- c1ccccc1: class 0
- Clc1ccccc1-c1nc(Nc2ccncc2)c2ccccc2n1: class 1
- COc1ccc(/C=C/c2cc(OC)cc(=O)o2)cc1: class 0
- C=CC(=C)CCC=C(C)C: class 0
- COc1cc(/C=C/c2ccccc2)oc(=O)c1: class 1
- CC(=O)OC/C=C(\C)CCC=C(C)C: class 0
- CC(C)=CCc1c(O)cc(O)c2c1O[C@H](c1ccccc1)CC2=O: class 1
- COc1ccc2[nH]cc(CCNc3nc(-c4ccccc4OC)nc4ccccc34)c2c1: class 1
- C=C(C)C1CC=C(C)C(O)C1 (stereo unspecified): class 0
- COc1ccccc1CNc1ncnc2ccc(-c3cccc(NS(C)(=O)=O)c3)cc12: class 1
- O=c1c(O)c(-c2ccccc2)oc2ccc3occc3c12: class 1
- O=C1CC(c2ccccc2)Oc2ccccc21 (stereo unspecified): class 0
- COc1cccc(-c2ccc3ncnc(NCc4cnc(C)cn4)c3c2)c1: class 1
- COc1ccc(CNc2cc(-c3cccc(NS(C)(=O)=O)c3)ncn2)c(OC)c1: class 1
- COc1ccccc1-c1ccc2ncnc(N3CCOCC3)c2c1: class 1
- COc1ccccc1CNc1ncncc1-c1ccccc1C(F)(F)F: class 1
- COc1ccccc1CNc1ncncc1-c1ccc2c(c1)OCO2: class 1
- C=CC(=O)OCCOCCOCCOCCOC(=O)C=C: class 0
- CCCCCCCCCCCCCC(=O)O: class 0
- Cc1ccccc1-c1nc(Nc2ccncc2)c2ccccc2n1: class 1
- N#Cc1cccc(-c2ccc3ncnc(NCc4cccs4)c3c2)c1: class 1
- O=[N+]([O-])c1cccc(Cl)c1Cl: class 0
- COc1ccc2[nH]cc(CCNc3ncncc3-c3ccccc3Cl)c2c1: class 1
- CCO[Si](CCCN)(OCC)OCC: class 0
- c1cn(-c2ncnc3ccc(-c4ccoc4)cc23)cn1: class 1

###

# tested on: Rap guanine nucleotide exchange factor 3 (Homo sapiens)
# assay text: Counterscreen qHTS for agonist of cAMP-regulated guanine nucleotide exchange factor 3 (EPAC1) (AID 1645889); note: % of control where 0% means no effect; nearly all actives have a fitted effect of over 40% in size
# condition context: EPAC1 Rap1B-BODIPY-GDP exchange, fluorescence; series mostly up to 154 µM
Results filed as inconclusive are left out. The source made the active and inactive calls. Calls come from the whole dose curve; as a rule, active = well fitted activation curve with a large enough effect; inconclusive = small, poorly fitted or top-dose-only effect, or another doubt; inactive = no such curve, though single readings can be large or run the other way.
endpoint: activation

- Cc1ccc(NC(=O)C2(C)CCN2CCc2ccccc2)cc1 (stereo unspecified): 6.12% [at 30.8 µM] (inactive)
- COc1ccc([C@@H]2[C@@H]3C(=O)N(C(C)(C)C)C(=O)[C@@H]3[C@]3(Cc4ccccc4)C(=O)N(c4cccc(Br)c4)C(=O)N23)cc1: 10.3% [at 30.8 µM] (inactive)
- CCCCN(Cc1ccccc1)C(=O)c1oc(=O)c2ccccc2c1-c1ccc(C)cc1: inactive
- COC(=O)c1cc(Br)c(=O)n(Cc2ccc3c(c2)OCO3)c1: 2.16% [at 30.8 µM] (inactive)
- Cc1ccc(N=Cc2sc(O)c3ccccc23)c(C)c1: 10.3% [at 30.8 µM] (inactive)
- CC1(Cc2ccc(OC(F)(F)F)cc2)C(=O)Nc2ccc(OC(F)(F)F)cc21 (stereo unspecified): 35.9% [at 30.8 µM] (inactive)
- O=C(c1ccc(CN2CCc3ccccc3C2)cc1)N1CCCCC1: inactive
- Cc1cccc(NC(=O)CC2C(=O)OCCN2Cc2ccccc2)c1 (stereo unspecified): inactive
- CC1CN(c2nc(-c3ccccc3)nc3ccccc23)CC(C)O1 (stereo unspecified): 21.3% [at 30.8 µM] (inactive)
- CC(=O)Nc1ccc(NC(=O)CNC(=O)COc2ccccc2)cc1: -0.338% [at 30.8 µM] (inactive)
- CC(C)(C)CNC(=O)c1cccc2c1C(=O)c1ccc(-c3cc4ccccc4o3)cc1S2(=O)=O: inactive
- COc1ccc(C2CC(=O)c3c(O)cc(O)cc3O2)c(CC=C(C)C)c1OC (stereo unspecified): inactive
- N=c1c(S(=O)(=O)c2ccc(Br)cc2)cc2c(=O)n3ccccc3nc2n1Cc1ccccc1: 9.82% [at 30.8 µM] (inactive)
- Cc1ccc(C)c(-c2ccc(=O)n(Cc3ccc(F)cc3Cl)n2)c1: inactive
- N#Cc1c(-c2ccc(Cl)cc2)cc(-c2cccs2)nc1SCC(=O)O: inactive
- Cc1ccc(OCCn2c(=O)n(C)c3ccccc32)cc1: inactive
- CC1CN(c2nc3ccccc3cc2-c2ccccc2)CC(C)O1 (stereo unspecified): inactive
- COc1ccc(N2CCN(CCCNC(=O)c3ccc4nc(CCc5ccccc5)oc4c3)CC2)cc1: inactive
- COc1ccccc1-n1c(C)c(C(=O)O)c2cc(OC)c3ccccc3c21: inactive
- COc1ccc(/C=N/N=C2/C(=O)Nc3ccccc32)cc1O: 36.3% [at 30.8 µM] (inactive)
- N#CCOC(=O)[C@H](Cc1c[nH]c2ccccc12)NS(=O)(=O)c1ccc(Cl)cc1: inactive

###

# tested on: Rap guanine nucleotide exchange factor 4 (Homo sapiens) (UniProt Q8WZA2)
# Sequence (Q8WZA2 whole entry, looked up): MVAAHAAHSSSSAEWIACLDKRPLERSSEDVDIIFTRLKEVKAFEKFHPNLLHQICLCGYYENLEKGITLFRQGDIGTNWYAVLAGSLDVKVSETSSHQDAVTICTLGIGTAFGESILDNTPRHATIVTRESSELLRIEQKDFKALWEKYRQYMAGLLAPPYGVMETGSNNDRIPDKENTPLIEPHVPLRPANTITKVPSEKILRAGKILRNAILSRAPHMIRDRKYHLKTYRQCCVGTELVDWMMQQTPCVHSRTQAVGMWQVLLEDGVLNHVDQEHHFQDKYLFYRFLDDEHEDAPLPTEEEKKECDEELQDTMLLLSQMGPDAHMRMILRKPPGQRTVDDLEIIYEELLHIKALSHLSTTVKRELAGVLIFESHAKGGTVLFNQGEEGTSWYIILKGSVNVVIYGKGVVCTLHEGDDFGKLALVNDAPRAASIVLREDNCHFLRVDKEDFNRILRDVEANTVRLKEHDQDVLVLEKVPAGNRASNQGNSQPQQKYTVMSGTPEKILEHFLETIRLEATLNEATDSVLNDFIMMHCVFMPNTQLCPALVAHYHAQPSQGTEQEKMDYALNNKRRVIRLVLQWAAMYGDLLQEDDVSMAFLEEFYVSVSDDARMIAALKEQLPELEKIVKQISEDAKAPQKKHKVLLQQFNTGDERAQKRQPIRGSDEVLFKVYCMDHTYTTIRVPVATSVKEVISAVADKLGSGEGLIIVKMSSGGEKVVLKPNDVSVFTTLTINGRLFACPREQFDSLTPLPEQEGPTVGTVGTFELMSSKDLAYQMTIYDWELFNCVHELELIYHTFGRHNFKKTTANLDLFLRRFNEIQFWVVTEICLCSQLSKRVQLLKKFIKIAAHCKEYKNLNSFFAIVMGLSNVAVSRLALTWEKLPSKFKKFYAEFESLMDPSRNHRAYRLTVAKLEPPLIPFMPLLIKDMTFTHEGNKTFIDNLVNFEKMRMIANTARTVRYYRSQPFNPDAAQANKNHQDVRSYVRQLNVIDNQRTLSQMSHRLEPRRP
# assay text: Confirmatory qHTS for antagonist of cAMP-regulated guanine nucleotide exchange factor 4 (EPAC2) (AID 1645885); note: nearly all actives have a fitted effect of over 25% in size
# condition context: EPAC2 Rap1B-BODIPY-GDP exchange fluorescence, biochemical; series mostly up to 12.7 µM
Records with an inconclusive call do not appear. Calls of active or inactive are those of the source. Calls come from the whole dose curve; as a rule, active = well fitted inhibition curve with a large enough effect; inconclusive = small, poorly fitted or top-dose-only effect; inactive = no such curve, though single readings can be large or run the other way.
Outcome codes: TRUE for active, FALSE for inactive

- CC(C)(C)c1ccc(C(=O)N/C(=C\c2cccc([N+](=O)[O-])c2)C(=O)Nc2cccc(C(=O)O)c2)cc1: FALSE
- COc1ccc(S(=O)(=O)N2CCCCC2)cc1NC(=O)c1c(F)cccc1Cl: FALSE
- N#CC1=C(N)OC2=C(CC/C2=C\c2ccccc2)C1c1ccccc1 (stereo unspecified): FALSE
- COc1cccc(C(=O)Nc2nnc(-c3ccccc3)s2)c1OC: FALSE
- Cc1ccc2nc(-c3ccco3)c(Cc3cccc(Cl)c3)n2c1: FALSE
- COc1ccc(OCC(=O)OCCNC(=O)c2cccnc2)cc1: FALSE
- CCCN(CC(=O)Nc1ccccc1OC)C(=O)c1cccc(S(=O)(=O)Nc2ccc(OC)cc2)c1: FALSE
- O=C(O)c1ccc(N/N=C/c2cn(Cc3ccccc3F)c3ccccc23)cc1: FALSE
- COC(=O)CC1(C(=O)OC)Oc2ccc(Br)cc2C(=O)N1c1cccc(Cl)c1Cl (stereo unspecified): TRUE
- O=C(C(=Cc1ccccc1)c1ccccc1)c1ccccc1: FALSE
- CC1CN(c2nc3ccccc3nc2C(C#N)C(=O)NCc2ccc3c(c2)OCO3)CC(C)O1 (stereo unspecified): FALSE
- CCOC(=O)C1=C(C)OC(N)=C(C#N)C1c1cc2c(cc1Br)OCO2 (stereo unspecified): FALSE
- CC1(Cc2ccccc2OC(F)(F)F)C(=O)Nc2ccc(-c3ccsc3)cc21 (stereo unspecified): TRUE
- CCOCc1nnc(NC(=O)C2c3ccccc3Oc3ccccc32)s1: TRUE
- O=C(N/N=C/c1ccc(-c2ccc(Cl)c(C(=O)O)c2)o1)c1cc2c(ccc3ccccc32)o1: FALSE
- O=C(Nc1cccnc1)c1c(O)c2cccc3c2n(c1=O)CC3: FALSE
- O=C(O)/C(=C\c1ccc(-c2ccc(F)cc2)o1)c1ccccc1: FALSE
- Cc1cc2oc(=O)c(CC(=O)O)c(C)c2c2occ(-c3ccccc3)c12: FALSE
- Cc1ccc2nc3sc(C(=O)Nc4c(C)[nH]c(=O)[nH]c4=O)c(N)c3cc2c1: FALSE
- C[C@@H]1CN([C@@H](C)CO)C(=O)c2ccccc2-c2ccccc2CO[C@@H]1CN(C)S(=O)(=O)c1ccc(C(F)(F)F)cc1: FALSE
- COc1ccc(C2CC(c3cccs3)=NN2C(=O)c2ccco2)cc1OC (stereo unspecified): FALSE
